System: ERK phosphorylation in colon 26 cells
Assay: cells
Conditions: Mus musculus, Colon 26, read-out: Cellular activity IC50
metric: pIC50
One number for each entry, as −log10 of the molar value.

[ask] Name the recorded pIC50 for `O=C(NOC[C@@H](O)CO)c1ccc(F)c(F)c1Nc1ccc(I)cc1F` .
[reply] 9.08

----------
Test: clinical
Settings: human, plasma, oral, 20 mg
metric: Cmax
Provide a numeric answer, followed by its unit.

[ask] Could you share which Cmax value was measured for `O=C(NOC[C@H](O)CO)c1ccc(F)c(F)c1Nc1ccc(I)cc1F` ?
[reply] 0.766 µg/mL

----------
Experiment: Pilot food effect assessment of plasma pharmacokinetics
Details: human, plasma, oral, 1 mg, Tmax Fed, 1 mg BID, individual patients
metric: Tmax
Put down the number, then write its unit next to it.

[ask] Can you look up the measured Tmax of `O=C(NOC[C@H](O)CO)c1ccc(F)c(F)c1Nc1ccc(I)cc1F` for me?
[reply] 3 h

----------
System: ERK phosphorylation in colon 26 cells
Experiment: cells
Details: Mus musculus, Colon 26, 1 h, read-out: Cellular IC50
metric: IC50 (nM)
Answers are plain numbers, in nM.

[ask] // IC50 lookup, key: `O=C(NOC[C@H](O)CO)c1ccc(F)c(F)c1Nc1ccc(I)cc1F`
[reply] 0.34

----------
Assay: Pilot food effect assessment of plasma pharmacokinetics
Conditions: human, plasma, oral, 2 mg, AUC(0-24) Fasted, 2 mg BID, individual patients
metric: AUC(0-t) (ng·h/mL)
Answers are plain numbers, in ng·h/mL.

[ask] AUC(0-t) lookup needed for `O=C(NOC[C@H](O)CO)c1ccc(F)c(F)c1Nc1ccc(I)cc1F` , thanks.
[reply] 594

----------
Experiment: clinical
Conditions: human, plasma, oral, 20 mg
metric: AUC(0-t) (ng·h/mL)
Numbers only, in ng·h/mL.

[ask] Given `O=C(NOC[C@H](O)CO)c1ccc(F)c(F)c1Nc1ccc(I)cc1F` , state its recorded AUC(0-t).
[reply] 6990

----------
Experiment: clinical
Conditions: human, plasma, oral, 30 mg
metric: Cmax

[ask] Please report the recorded Cmax for O=C(NOC[C@H](O)CO)c1ccc(F)c(F)c1Nc1ccc(I)cc1F [Compound 1] .
[reply] 1640 ng/mL
